Tested on: HCT-116
Assay: Induction of apoptosis in human HCT116 cells assessed as increase in cleaved PARP levels at 1.25 to 2.5 uM after 48 hrs Western blot method
Type: functional, cell-based
Activity calls are given as the source filed them. The rule behind the calls is not given here.
Response enum: active, inactive

Study these solved cases before continuing.
| COMPOUND | ASSAYED_SYSTEM | CLASS_NAME |
| --- | --- | --- |
| CN(C)Cc1cn(S(=O)(=O)c2ccc(/C=C/C(=O)NO)cc2)c2ccccc12 | HCT-116 | active |
| CN1CCc2c(c3ccccc3n2Cc2ccc(C(=O)NO)cc2)C1 [TUBASTATIN A] | HCT-116 | inactive |
| Cc1c(CN(C)C)c2ccccc2n1S(=O)(=O)c1ccc(/C=C/C(=O)NO)cc1 | HCT-116 | active |
| Cc1c(CN(C)C)c2ccccc2n1S(=O)(=O)c1cccc(/C=C/C(=O)NO)c1 | HCT-116 | active |
| CN(C)Cc1cn(S(=O)(=O)c2cccc(/C=C/C(=O)NO)c2)c2ccccc12 | HCT-116 | active |

Consider the record given below.
-- ask Call for entry CN(C)C(=O)c1cn(Cc2ccc(/C=C/C(=O)NO)cc2)c2ccccc12 :
-- reply active
